system: RPMI-8226 leukemia; assay: NCI tumour cell line growth inhibition, 48 h
readout: TGI

Given the entry CCc1ccccc1NC(=O)C(=O)C(C#N)c1c(Cl)cccc1Cl (stereo not given) , report its measured TGI.
> 100 µM

I'd like to know its TGI. The compound in question is Nc1no[n+]([O-])c1-c1nnc2c(n1)-c1ccccc1C2=O
7.73 µM

Which TGI value belongs to C[C@@H](Oc1cc(-c2cnn(C3CCNCC3)c2)cnc1N)c1c(Cl)cc(F)cc1Cl ?
8.6 µM

Looking for the measured TGI of Cc1ccc(NC2=CC(=O)C(=O)c3ccccc32)cc1 , can you help?
> 100 µM

Requested field: TGI. Item: CC(C)(C)OC(=O)C1/C(=C/CBr)CN1C(=O)OC(C)(C)C (stereo not given)
18.1 µM

Entry c1ccc(COC[C@H]2C3OCC([C@H](OCc4ccccc4)[C@H]3OCc3ccccc3)N2Cc2ccccc2)cc1 (stereo not given in full) has what TGI?
> 100 µM

Entry CC(=O)c1ccc(Oc2c3ccccc3nc3occc23)cc1 has what TGI?
> 100 µM

Look up TGI for this compound: COC(=O)[C@H](CCCCNC(=O)OCc1ccccc1)NC(=O)[C@@H](NC(=O)Nc1cc(C(F)(F)F)cc(C(F)(F)F)c1)C(C)C
> 10 µM

Suppose we examine the compound COC1OC(Cn2cc([N+](=O)[O-])nc2C)C(O)C(O)C1O (stereo not given) ; what TGI value has been reported?
> 100 µM

What value of measured TGI is listed for NS(=O)(=O)c1cc(C(=O)O)c(Cl)c([N+](=O)[O-])c1Cl ?
> 100 µM
